# assay name: Quantitative highthroughput screen to assess conditional lethalithy of NOMO1 cells grown in RPMI1640 with untreated serum (RPMI+s) (AID 1963876); further: nearly all actives have a fitted effect of over 35% in size
# applied conditions: NOMO1 AML cells in RPMI+serum, CellTiter-Glo viability, 48 h; series mostly up to 45.8 µM
Results filed as inconclusive are left out. Calls of active or inactive are those of the source. The call rests on the fitted dose curve; in most records, active means well fitted cell-killing curve with a large enough effect; inconclusive means small, poorly fitted or top-dose-only effect; inactive means flat fitted curve, though single readings scatter.
Classes used: True = active, False = inactive

| compound | group label |
| --- | --- |
| CCCCCCCN(CC)CCCC(O)c1ccc(NS(C)(=O)=O)cc1 (stereo not drawn) | False |
| N#CC1(c2ccc(NC(=O)c3cccnc3NCc3ccncc3)cc2)CCCC1 | False |
| O=C1Cc2cc(CCN3CCN(c4nsc5ccccc45)CC3)c(Cl)cc2N1 | False |
| CC(CCc1ccc(O)cc1)NCCc1ccc(O)c(O)c1 (stereo not drawn) | False |
| CC(C(=O)O)c1cccc(C(=O)c2ccccc2)c1 (stereo not drawn) | False |
| COc1cccc2c1C(=O)c1c(O)c3c(c(O)c1C2=O)C[C@@](O)(C(=O)CO)C[C@H]3O[C@H]1C[C@H](N)[C@H](O)[C@H](C)O1 | True |
| COc1cc2nccc(Oc3ccc(NC(=O)Nc4ccc(F)cc4F)c(F)c3)c2cc1OC | False |
| CCS(=O)(=O)c1cccc(-c2cc(C(=O)NC3CCN(C)CC3)c(C)c3[nH]c4ncc(C)cc4c23)c1 | True |
| CCCc1nc(C(C)(C)O)c(C(=O)O)n1Cc1ccc(-c2ccccc2-c2nn[nH]n2)cc1 | False |
| Nc1ccn([C@@H]2O[C@H](CO)[C@@H](O)[C@H]2O)c(=O)n1 | True |
| CC[C@@H]1C(=O)N(C)c2cnc(Nc3ccc(C(=O)NC4CCC(N5CCN(CC6CC6)CC5)CC4)cc3OC)nc2N1C(C)C (stereo partly drawn) | True |
| CN(C)c1ccccc1CN1CCCN(Cc2ccccc2N(C)C)C1c1ccncc1 | False |
| Nc1nc2c(ncn2COC(CO)CO)c(=O)[nH]1 | True |
| CC(=O)SCC(Cc1ccccc1)C(=O)NCC(=O)OCc1ccccc1 (stereo not drawn) | True |
| CCCCCCCCCC(=O)N[C@@H](Cc1c[nH]c2ccccc12)C(=O)N[C@H](CC(N)=O)C(=O)N[C@@H](CC(=O)O)C(=O)N[C@@H]1C(=O)NCC(=O)N[C@@H](CCCN)C(=O)N[C@@H](CC(=O)O)C(=O)N[C@H](C)C(=O)N[C@@H](CC(=O)O)C(=O)NCC(=O)N[C@H](CO)C(=O)N[C@@H]([C@@H](C)CC(=O)O)C(=O)N[C@@H](CC(=O)c2ccccc2N)C(=O)O[C@@H]1C | False |
| COc1cc(C(=O)NC2CCN(C)CC2)ccc1Nc1ncc2c(n1)N(C1CCCC1)CCC(=O)N2C(C)C | True |
| CC1(C)[C@H](C(=O)O)N2C(=O)C[C@H]2S1(=O)=O | True |
| O=S(=O)(O)CCS | True |

###

# assay name: Viability qHTS for spleen associated tyrosine kinase inhibitor (SYKi) drug resistant MV4-11 cells (AID 1963824); further: nearly all actives have a fitted effect of over 35% in size
# applied conditions: SYKi-resistant MV4-11 viability, CellTiter-Glo, 72 h; series mostly up to 45 µM
Inconclusive results are not listed. Activity calls are given as the source filed them. The call rests on the fitted dose curve; in most records, active means well fitted cell-killing curve with a large enough effect; inconclusive means small, poorly fitted or top-dose-only effect, or effect the other way; inactive means no such curve, though single readings can be large or run the other way.
Labels: active, inactive

| molecule | group label |
| --- | --- |
| CC[C@@H]1[C@H]2CCCCN3C(=O)C[C@H]([C@@H]4[C@H]1OC(=O)[C@H]4C)[C@@H]23 | inactive |
| CCCc1ncc(C[n+]2ccccc2C)c(N)n1 | inactive |
| CN(C)C(CCOc1cccc2ccccc12)c1ccccc1 (stereo not given) | active |
| O=c1cc(CN2CCOCC2)occ1OCCCCCSc1ccnc2cc(C(F)(F)F)ccc12 | active |
| CN1[C@@H]2CC[C@H]1CC(OC(=O)C(O)c1ccccc1)C2 (stereo not given in full) | inactive |
| c1ccc([C@H]2CN3CCSC3=N2)cc1 | inactive |
| O=c1[nH]ccc2nc(-c3ccc(CN4CCC(c5nc(-c6ccccn6)n[nH]5)CC4)cc3)c(-c3ccccc3)cc12 | active |
| CC(C)(O)CS(=O)(=O)Nc1ccc2c(c1)CCN(C(=O)COc1cccnc1)C2 | active |
| CCCCC(CC)COC(=O)c1ccccc1C(=O)O (stereo not given) | active |
| CCOC(=O)CCN(C(=O)c1ccc2c(c1)nc(CNc1ccc(C(=N)N)cc1)n2C)c1ccccn1 | inactive |

###

# assay name: Quantitative highthroughput screen to assess conditional lethalithy of SEM cells grown in RPMI1640 with dialyzed fetal bovine serum (RPMI+ds) (AID 1963884); further: nearly all actives have a fitted effect of over 35% in size
# applied conditions: SEM B-ALL cells, RPMI+dialyzed FBS, CellTiter-Glo viability, 48 h; series mostly up to 45.8 µM
Inconclusive results are not listed. Activity calls are given as the source filed them. Calls follow the shape of the dose curve; as a rule, active = well fitted cell-killing curve with a large enough effect; inconclusive = small, poorly fitted or top-dose-only effect, or effect the other way; inactive = no such curve, though single readings can be large or run the other way.
Labels: active, inactive

| compound | group label |
| --- | --- |
| COc1cc2ncnc(-n3nc(-c4ccccn4)nc3N)c2cc1OC | active |
| COc1cc2c(cc1OC)CC(=O)N(CCCN(C)C[C@H]1Cc3cc(OC)c(OC)cc31)CC2 | inactive |
| COC1=C(OC)C(=O)C(CC=C(C)CCC=C(C)CCC=C(C)CCC=C(C)CCC=C(C)CCC=C(C)CCC=C(C)CCC=C(C)CCC=C(C)CCC=C(C)C)=C(C)C1=O | inactive |
| O=c1cc(-c2ccc(O)c(O)c2)oc2cc(O)cc(O)c12 | inactive |
| COCCCOc1ccnc(CS(=O)c2nc3ccccc3[nH]2)c1C (centres undefined) | inactive |
| CN1C(C(=O)Nc2ccccn2)=C(O)c2sc(Cl)cc2S1(=O)=O | inactive |
| CN(C)Cc1ccc(-c2nc3cccc4c3n2CCNC4=O)cc1 | inactive |
| CC(C)NCC(O)c1ccc(NS(C)(=O)=O)cc1 (centres undefined) | inactive |
| CCNC(=O)CCCC=CC[C@@H]1[C@H](C=CC(O)CCc2ccccc2)[C@@H](O)C[C@@H]1O (some centres undefined) | inactive |
| c1cc(-c2sc(-c3ccncc3)c(-c3ccncc3)c2-c2ccncc2)ccn1 | active |
| CON=C(C(=O)N[C@@H]1C(=O)N2C(C(=O)O)=C(Cn3ccc(=N)n3CCO)CS[C@H]12)c1csc(N)n1 | inactive |
| Clc1ccc2c(c1)C(N1CCNCC1)=Nc1ccccc1O2 | inactive |
| COc1ccc(C(=O)CC(=O)c2ccc(C(C)(C)C)cc2)cc1 | inactive |
| CC(=O)O[C@]1(C(C)=O)CC[C@H]2[C@@H]3C=C(C)C4=CC(=O)CC[C@]4(C)[C@@H]3CC[C@@]21C | inactive |
| COC(=O)C[C@](O)(CCCC(C)(C)O)C(=O)O[C@@H]1C(OC)=C[C@]23CCCN2CCc2cc4c(cc2[C@H]13)OCO4 | inactive |
| Cc1cccc(C#Cc2ccccc2)n1 | active |
| CC(C)(Sc1cc(C(C)(C)C)c(O)c(C(C)(C)C)c1)Sc1cc(C(C)(C)C)c(O)c(C(C)(C)C)c1 | inactive |
| C[C@@]1(C(=O)Nc2ccc(F)nc2)CCCN1c1nc(Nc2cc(C3CC3)[nH]n2)c2cccn2n1 | active |
| N#CC(c1ccc(Cl)cc1)c1c(Cl)cc(-n2ncc(=O)[nH]c2=O)cc1Cl (centres undefined) | inactive |

###

# assay name: Quantitative highthroughput screen to assess conditional lethalithy of NOMO1 cells grown in RPMI1640 with untreated serum (RPMI+s) (AID 1963876); further: nearly all actives have a fitted effect of over 35% in size
# applied conditions: NOMO1 AML cells in RPMI+serum, CellTiter-Glo viability, 48 h; series mostly up to 45.8 µM
Records with an inconclusive call do not appear. Active and inactive are the calls of the source. Calls come from the whole dose curve; as a rule, active = well fitted cell-killing curve with a large enough effect; inconclusive = small, poorly fitted or top-dose-only effect; inactive = flat fitted curve, though single readings scatter.
Labels: active, inactive

| compound | group label |
| --- | --- |
| N#CC(=Cc1ccc(O)c(O)c1)C(=O)NCc1ccccc1 | inactive |
| CCOc1cc(C(C)(C)C)ccc1C1=N[C@@](C)(c2ccc(Cl)cc2)[C@@](C)(c2ccc(Cl)cc2)N1C(=O)N1CCN(CC(=O)N2CCOCC2)CC1 | inactive |
| COc1cc([C@@H](CC(=O)O)c2ccc(C)c(CN3C[C@@H](C)Oc4ccccc4S3(=O)=O)c2)cc2nnn(C)c12 | inactive |
| CCOC(=O)[C@H]1O[C@H]1C(=O)N[C@@H](CC(C)C)C(=O)NCCC(C)C | active |
| Cc1ccccc1C(C(=O)NC1CCCCC1)N(C(=O)Cn1ccnc1C)c1cccc(F)c1 (centres undefined) | inactive |
| CNC(=O)c1cc(Oc2ccc(NC(=O)Nc3cc(C(C)(C)C)nn3-c3ccc4ncccc4c3)c(F)c2)ccn1 | inactive |
| Cc1c(C)n(Cc2ccc(-c3ccccc3C(=O)O)cc2)c2ccc(C(=O)N[C@@H](C)c3ccc([N+](=O)[O-])cc3)cc12 | active |
| COc1ccc(CCC(=O)c2c(O)cc(O[C@@H]3O[C@H](CO)[C@@H](O)[C@H](O)[C@@H]3O[C@@H]3O[C@@H](C)[C@H](O)[C@@H](O)[C@@H]3O)cc2O)cc1O | active |
| N[C@@H]1CONC1=O | inactive |
